- Tested on: CAL-51
- procedureDetails: normalised response (% of control), CellTox Green; higher = less cell death (100 = DMSO, 0 = benzethonium chloride kill control)
- experimentalSetup: incubation time: 72 h
measurementName: normalised response
Provide a numeric answer, followed by its unit.

Guide cases for normalised response, answers given:
molecule	measurementName	observedValue
CCn1c(C(=O)N(C2CC2)C2CC2)cc2c3c(ncn3C)c(Nc3cc(C)n(C)n3)nc21 (100 nM)	normalised response	101%
C=CCn1c(=O)c2cnc(Nc3ccc(N4CCN(C)CC4)cc3)nc2n1-c1cccc(C(C)(C)O)n1 [MK1775] (10000 nM)	normalised response	41.9%
Cc1cn(-c2cc(NC(=O)c3ccc(C)c(Nc4nccc(-c5cccnc5)n4)c3)cc(C(F)(F)F)c2)cn1 [Nilotinib] (1000 nM)	normalised response	86.3%
COc1ccc(S(=O)(=O)Nc2cccnc2Nc2ccc(O)cc2)cc1 [ABT-751] (100 nM)	normalised response	98.6%
CCNC(=O)c1noc(-c2cc(C(C)C)c(O)cc2O)c1-c1ccc(CN2CCOCC2)cc1 [NVP-AUY922] (1000 nM)	normalised response	48.1%

Ask | Read off the recorded normalised response for CC(C)(C)NC(=O)[C@H]1CC[C@H]2[C@@H]3CC[C@H]4NC(=O)C=C[C@]4(C)[C@H]3CC[C@]12C [Finasteride] (10000 nM)
Reply | 100%

Ask | Read off the recorded normalised response for CN(C)C(=N)NC(=N)N [Metformin] (100000 nM)
Reply | 86.8%

Ask | Read off the recorded normalised response for CC1(C)CCC(c2ccc(Cl)cc2)=C(CN2CCN(c3ccc(C(=O)NS(=O)(=O)c4ccc(N[C@H](CCN5CCOCC5)CSc5ccccc5)c(S(=O)(=O)C(F)(F)F)c4)cc3)CC2)C1 [Navitoclax] (10000 nM)
Reply | 31.9%

Ask | Read off the recorded normalised response for CN(Cc1cnc2nc(N)nc(N)c2n1)c1ccc(C(=O)N[C@@H](CCC(=O)O)C(=O)O)cc1 [Methotrexate] (500 nM)
Reply | 104%
